Tested on: PRMT1 (protein arginine N-methyltransferase 1)
Test: small molecules binding arginine methyltransferase PRMT1 – biochemical, small-molecule microarray, 635 nm fluorescence, primary screen (AID 1088)
Conditions: higher = more signal
measured_attribute: composite z-score
Form rule: numeric answer, no unit written next to it.

Some solved entries appear below for comparison.
- compound: "CC1CC/C=C\\[C@H]2OC34C=CCN(Cn5nnc6ccccc65)C(=O)[C@H]3N(CCCO)C(=O)[C@@H]4C2C(=O)O1 (some centres undefined)"
  assayed_system: "PRMT1 (protein arginine N-methyltransferase 1)"
  composite z-score: -0.749
- compound: "C=CCC(OC(C)=O)[C@@H]1[C@@H](N(Cc2cc3ccccc3o2)C(=O)c2cccc3ccccc23)c2cc(OCCCO)ccc2N1C(=O)Cc1ccc(OC)cc1 (some centres undefined)"
  assayed_system: "PRMT1 (protein arginine N-methyltransferase 1)"
  composite z-score: 0.21

Please tell me: composite z-score of C=CC[C@@]1(C(N)=O)N=C(c2ccc(OCCCO)cc2)O[C@@H]1c1ccccc1N=[N+]=[N-] , system PRMT1 (protein arginine N-methyltransferase 1)?
1.14

Entry Cc1c(NC(=O)/C(C#N)=C/C=C/c2ccccc2)c(=O)n(-c2ccccc2)n1C please
0.311
